Would you mind telling me the reported self-cleavage of each entry?
B1: CPEB3 Ribozyme (parent)
chain: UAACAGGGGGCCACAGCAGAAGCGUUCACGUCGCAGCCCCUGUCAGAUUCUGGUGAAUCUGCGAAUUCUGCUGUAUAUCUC

Variants of: B1
Assay: self-cleavage, relative activity (ratio to wild type); higher = more cleavage; in vitro, sequencing
API doc: respond with a numeric literal and nothing else, no unit.

Need self-cleavage of A15U A35U , thanks. 0.51

Need self-cleavage of U25A U41G , thanks. 0.22

Need self-cleavage of C71A A75U , thanks. 0.17

Need self-cleavage of C38U U69G , thanks. 0.42

Need self-cleavage of "U60C" , thanks. 0.54

Need self-cleavage of A3U A35G , thanks. 1.28

Need self-cleavage of A18C C34U , thanks. 0.22

Need self-cleavage of U58C C62A , thanks. 0.36

Need self-cleavage of U26C G52A , thanks. 0.76

Need self-cleavage of U54C G55A , thanks. 0.62

Need self-cleavage of U66G U78C , thanks. 0.41

Need self-cleavage of C32U U58C , thanks. 0.35

Need self-cleavage of A28G U67A , thanks. 0.27

Need self-cleavage of C23G U72A , thanks. 0.04

Need self-cleavage of A64G U67C , thanks. 0.25

Need self-cleavage of G8A A65G , thanks. 0.14

Need self-cleavage of G63U A64G , thanks. 0.79

Need self-cleavage of U58A U60C , thanks. 0.23

Need self-cleavage of C4A A21G , thanks. 0.92

Need self-cleavage of A18G G36A , thanks. 0.31

Need self-cleavage of A15G U78C , thanks. 0.78

Need self-cleavage of U26C G42C , thanks. 0.15

Need self-cleavage of U66C G73U , thanks. 1.02

Need self-cleavage of G52A U76G , thanks. 1.15

Need self-cleavage of A35C A57C , thanks. 0.28

Need self-cleavage of U25C G53C , thanks. 0.15

Need self-cleavage of A5C A18G , thanks. 0.53

Need self-cleavage of A2U A45G , thanks. 0.85

Need self-cleavage of "U76G" , thanks. 0.9

Need self-cleavage of U25G U74C , thanks. 0.52

Need self-cleavage of A65C A75G , thanks. 0.11

Need self-cleavage of A15G C37U , thanks. 0.81

Need self-cleavage of C44U U67A , thanks. 0.14

Need self-cleavage of U51C U74A , thanks. 1.3

Need self-cleavage of G9U C12U , thanks. 0.2

Need self-cleavage of C59U U78C , thanks. 0.94

Need self-cleavage of A18C U69A , thanks. 0.52

Need self-cleavage of A20U U72C , thanks. 0.34

Need self-cleavage of A20U G24C , thanks. 0.4

Need self-cleavage of U41C G53A , thanks. 1.13

Need self-cleavage of C38G A57G , thanks. 0.23

Need self-cleavage of C14A U25C , thanks. 0.21

Need self-cleavage of C17U A28C , thanks. 0.51

Need self-cleavage of G10U A57G , thanks. 0.23

Need self-cleavage of U26A C38A , thanks. 0.27

Need self-cleavage of C39U U74C , thanks. 1.1

Need self-cleavage of C23A C34U , thanks. 0.22

Need self-cleavage of A5U A45U , thanks. 0.54

Need self-cleavage of G7A U41A , thanks. 0.13

Need self-cleavage of C29U C68U , thanks. 0.42

Need self-cleavage of U49G U67C , thanks. 0.31

Need self-cleavage of A56U G70A , thanks. 0.35

Need self-cleavage of A57G C68G , thanks. 0.4

Need self-cleavage of U74G U78A , thanks. 1.26

Need self-cleavage of G22U A64G , thanks. 0.36

Need self-cleavage of G8U U41G , thanks. 0.39

Need self-cleavage of C40A U78C , thanks. 0.18

Need self-cleavage of U66G G70A , thanks. 0.27

Need self-cleavage of G7C U54C , thanks. 0.34

Need self-cleavage of C37U U60C , thanks. 0.35

Need self-cleavage of C50U U78C , thanks. 0.97

Need self-cleavage of G9U A64U , thanks. 0.06

Need self-cleavage of A3G C11G , thanks. 0.54

Need self-cleavage of A64U U67C , thanks. 0.32
